Item-by-item account of pIC50
# assayedSystem: AKT1 WT (Homo sapiens)
# Construct: expressed in transfected cells; host or cells: HEK293
# assayOverview: Live cell AKT1 WT target engagement by NanoBRET competitive probe displacement in HEK293 cells
# Format: binding
# conditionLabel: NanoBRET competitive probe displacement, live HEK293 cells, 2 h at 37° C.; read-out: AKT1 WT IC50
# Method: Determining live cell AKT1 E17K, AKT1 WT, and AKT2 target engagement by NanoBRET competitive probe displacement. […] Briefly, HEK293 cells were transfected with plasmids encoding kinase-NanoLuciferase fusion proteins overnight. […] After incubation for 2 h at 37° C., luciferase substrate and extracellular luciferase inhibitor were added to all wells, and luminescent intensity at 460 nm and 600 nm were measured on a multimode plate-reader. […]
Keep it numeric: pIC50 is minus log10 of the concentration in mol/L.

molecule	assayedSystem	pIC50
O=C(C1CC1)N1CCC(N[C@@H]2c3ccc(-n4c(-c5ccccc5F)nc5ccc(-n6ccc(N7CCOCC7)n6)nc54)cc3CC2F)CC1 (stereo partly shown)	AKT1 WT (Homo sapiens)	7.79
Cc1ccc(C(=O)N[C@H]2CCc3cc(-n4c(-c5cccnc5N)nc5ccc(-n6ccc(OC(F)F)n6)nc54)ccc32)cn1	AKT1 WT (Homo sapiens)	8.19
CN(C)C(=O)c1ccn(-c2ccc3nc(-c4cccnc4N)n(-c4ccc5c(c4)CC[C@@H]5NC4CCN(C(=O)C5CC5)CC4)c3n2)n1	AKT1 WT (Homo sapiens)	7.60
Nc1ncccc1-c1nc2ccc(-c3ccn(C(F)F)n3)nc2n1-c1ccc2c(c1)CC[C@@H]2NC(=O)c1ccc(C(F)(F)F)nc1	AKT1 WT (Homo sapiens)	8.45
Nc1ncccc1-c1nc2ccc(-n3cccn3)nc2n1-c1ccc2c(c1)CC[C@@H]2NC1CCN(C(=O)[C@H]2CCO2)CC1	AKT1 WT (Homo sapiens)	6.96
Cc1ccc(C(=O)N[C@H]2CCc3cc(-n4c(-c5cccnc5N)nc5ccc(-c6nc(C(F)F)cs6)nc54)ccc32)cn1	AKT1 WT (Homo sapiens)	8.21
Cc1cnc2ccc(C(=O)N[C@H]3CCc4cc(-n5c(-c6cccnc6N)nc6ccc(-n7nccn7)nc65)ccc43)cn12	AKT1 WT (Homo sapiens)	7.75
Nc1ncccc1-c1nc2ccc(-n3nccn3)nc2n1-c1ccc2c(c1)CC[C@@H]2NC(=O)c1ccns1	AKT1 WT (Homo sapiens)	7.66

What value of pIC50 has been reported for the following molecule? `N#Cc1ncnc(N2CCC(N[C@H]3CCc4cc(-n5c(-c6cccnc6N)nc6ccc(-n7cccn7)nc65)ccc43)CC2)n1`
8.36

What value of pIC50 has been reported for the following molecule? `Nc1ncccc1-c1nc2ccc(-n3ccc(N4CCOCC4)n3)nc2n1-c1ccc2c(c1)CC[C@@H]2NC1CCN(C(=O)C2CC2)CC1`
8.10

What value of pIC50 has been reported for the following molecule? `Nc1ncccc1-c1nc2ccc(-n3cccn3)nc2n1-c1ccc2c(c1)CC[C@@H]2N[C@@H]1CCN(c2ccccc2)C1`
7.03

What value of pIC50 has been reported for the following molecule? `Cc1nnsc1C(=O)N[C@H]1CCc2cc(-n3c(-c4cccnc4N)nc4ccc(-n5cccn5)nc43)ccc21`
7.60

What value of pIC50 has been reported for the following molecule? `Nc1ncccc1-c1nc2ccc(-n3nccn3)nc2n1-c1ccc2c(c1)CC[C@@H]2NC(=O)c1cnc(C(F)F)s1`
8.02

* * *

# assayedSystem: AKT2 (Homo sapiens, UniProt P31751)
# Construct: expressed in transfected cells; host or cells: HEK293
# Sequence (P31751 whole entry): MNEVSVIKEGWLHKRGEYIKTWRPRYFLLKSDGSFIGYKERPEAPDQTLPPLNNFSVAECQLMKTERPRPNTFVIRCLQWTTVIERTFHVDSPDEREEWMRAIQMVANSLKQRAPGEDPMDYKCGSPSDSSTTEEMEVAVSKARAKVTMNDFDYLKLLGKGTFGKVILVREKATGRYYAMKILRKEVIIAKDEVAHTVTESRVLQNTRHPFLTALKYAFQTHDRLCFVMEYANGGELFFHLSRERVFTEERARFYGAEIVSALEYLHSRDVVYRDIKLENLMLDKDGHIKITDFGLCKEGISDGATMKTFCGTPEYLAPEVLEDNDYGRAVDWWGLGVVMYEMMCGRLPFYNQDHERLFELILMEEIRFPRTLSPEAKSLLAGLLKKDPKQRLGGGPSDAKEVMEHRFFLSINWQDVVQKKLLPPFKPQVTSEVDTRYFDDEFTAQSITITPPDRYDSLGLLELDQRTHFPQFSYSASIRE
# assayOverview: Live cell AKT2 target engagement by NanoBRET competitive probe displacement in HEK293 cells
# Type: binding
# conditionLabel: NanoBRET live cell target engagement, HEK293 cells, 2 h at 37° C.; read-out: AKT2 IC50
observedProperty: pIC50
Keep it numeric: pIC50 is minus log10 of the concentration in mol/L.

These recorded examples may help you get a feel for the data.
structureSmilesString	assayedSystem	pIC50
Cc1cc(C(=O)N[C@H]2CCc3cc(-n4c(-c5cccnc5N)nc5ccc(-n6nccn6)nc54)ccc32)cnc1C(F)F	AKT2 (Homo sapiens, UniProt P31751)	6.08
Cc1ccc(C(=O)N[C@H]2CCc3cc(-n4c(-c5cccnc5N)nc5ccc(-c6cnn(C)n6)nc54)ccc32)cn1	AKT2 (Homo sapiens, UniProt P31751)	7.00
CN(C)Cc1cc(C(=O)N[C@H]2CCc3cc(-n4c(-c5cccnc5N)nc5ccc(-n6cccn6)nc54)ccc32)ccn1	AKT2 (Homo sapiens, UniProt P31751)	5.63
Nc1ncccc1-c1nc2ccc(-n3cccn3)nc2n1-c1ccc2c(c1)CC[C@@H]2NC(=O)c1cccc(CO)c1	AKT2 (Homo sapiens, UniProt P31751)	7.23
CN1CCC(N[C@H]2CCc3cc(-n4c(-c5cccnc5N)nc5ccc(-n6cccn6)nc54)ccc32)CC1	AKT2 (Homo sapiens, UniProt P31751)	5.30
Nc1ncccc1-c1nc2ccc(-n3cccn3)nc2n1-c1ccc2c(c1)CC[C@@H]2n1nnc2ccccc21	AKT2 (Homo sapiens, UniProt P31751)	6.12

What value of pIC50 has been reported for the following molecule? `Nc1ncccc1-c1nc2ccc(-n3cccn3)nc2n1-c1ccc2c(c1)CC[C@@H]2NC(=O)c1cnc2c(c1)COC2`
7.44

* * *

# assayedSystem: AKT1 WT (Homo sapiens, UniProt P31749)
# Construct: expressed in transfected cells; host or cells: HEK293
# Sequence (P31749 whole entry): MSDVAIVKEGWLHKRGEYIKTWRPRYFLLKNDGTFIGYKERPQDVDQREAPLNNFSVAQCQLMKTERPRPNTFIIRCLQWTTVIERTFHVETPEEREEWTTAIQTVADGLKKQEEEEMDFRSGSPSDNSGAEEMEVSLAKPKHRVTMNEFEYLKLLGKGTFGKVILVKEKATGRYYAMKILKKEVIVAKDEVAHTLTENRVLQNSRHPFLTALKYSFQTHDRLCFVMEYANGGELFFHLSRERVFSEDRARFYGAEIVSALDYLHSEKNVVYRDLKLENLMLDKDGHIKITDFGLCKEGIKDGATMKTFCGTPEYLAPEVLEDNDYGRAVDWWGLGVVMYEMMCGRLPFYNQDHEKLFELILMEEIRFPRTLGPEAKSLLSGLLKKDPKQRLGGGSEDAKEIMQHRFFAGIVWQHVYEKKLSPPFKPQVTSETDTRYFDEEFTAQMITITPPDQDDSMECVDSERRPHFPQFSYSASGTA
# assayOverview: Live cell AKT1 WT target engagement by NanoBRET competitive probe displacement in HEK293 cells
# Assay type: binding
# conditionLabel: NanoBRET live cell target engagement, HEK293 cells, 2 h at 37° C.; read-out: AKT1 WT IC50
Doc: threshold 0.01 µM (exclusive). Items with IC50 beneath it return T; others return F.

Answered cases to consult:
molecule	className
Nc1ccc(C(=O)N[C@H]2CCc3cc(-n4c(-c5cccnc5N)nc5ccc(-n6cccn6)nc54)ccc32)cn1 [Compound 311]	F
CCc1cc(C(=O)N[C@H]2CCc3cc(-n4c(-c5cccnc5N)nc5ccc(-n6cccn6)nc54)ccc32)ccn1 [Compound 204]	T
COc1cc(-n2cccn2)nc2c1nc(-c1cccnc1N)n2-c1ccc2c(c1)CC[C@@H]2NC(=O)c1ccc(C(F)F)nc1 [Compound 122]	F
CN(C)c1ccc(F)c(C(=O)N[C@H]2CCc3cc(-n4c(-c5cccnc5N)nc5ccc(-n6cccn6)nc54)ccc32)c1 [Compound 7]	T
COc1ncc(C(=O)N[C@H]2CCc3cc(-n4c(-c5cccnc5N)nc5ccc(-n6cccn6)nc54)ccc32)cn1 [Compound 23]	T
Nc1ncccc1-c1nc2ccc(-n3cccn3)nc2n1-c1ccc2c(c1)CC[C@@H]2NC(=O)Cc1ccccn1 [Compound 50]	F
Nc1ncccc1-c1nc2ccc(-n3cccn3)nc2n1-c1ccc2c(c1)CC[C@@H]2n1cc(-c2ccncc2)nn1 [Compound 198]	T
Cc1ccc2nc(-c3cccnc3N)n(-c3ccc4c(c3)CC[C@@H]4NC(=O)c3cccnc3C)c2n1 [Compound 145]	F

Say whether its IC50 is strictly beneath 0.01 µM. Entry: Nc1ncccc1-c1nc2ccc(-n3cccn3)nc2n1-c1ccc2c(c1)CC[C@@H]2NC(=O)C1CC1 [Compound 37]
F

Say whether its IC50 is strictly beneath 0.01 µM. Entry: Nc1ncccc1-c1nc2ccc(-n3cccn3)nc2n1-c1ccc2c(c1)CC[C@@H]2NC(=O)c1ccc2nccn2c1 [Compound 17]
T

Say whether its IC50 is strictly beneath 0.01 µM. Entry: CN(C)Cc1ncccc1C(=O)N[C@H]1CCc2cc(-n3c(-c4cccnc4N)nc4ccc(-n5cccn5)nc43)ccc21 [Compound 104]
F

Say whether its IC50 is strictly beneath 0.01 µM. Entry: Cc1ccc(C(=O)N[C@H]2CCc3cc(-n4c(-c5cccnc5N)nc5ccc(-c6ncc(C)s6)nc54)ccc32)cn1 [Compound 314]
F

Say whether its IC50 is strictly beneath 0.01 µM. Entry: CN(C(=O)N[C@H]1CCc2cc(-n3c(-c4cccnc4N)nc4ccc(-n5cccn5)nc43)ccc21)c1ccccc1 [Compound 132]
F

* * *

# assayedSystem: AKT1 WT (Homo sapiens, UniProt P31749)
# Construct: expressed in transfected cells; host or cells: HEK293
# assayOverview: Live cell AKT1 WT target engagement by NanoBRET competitive probe displacement in HEK293 cells
# Format: binding
# conditionLabel: NanoBRET live cell target engagement, HEK293 cells, 2 h at 37° C.; read-out: AKT1 WT IC50
observedProperty: IC50 (nM)
Give your result in nM as a bare value.

These recorded examples may help you get a feel for the data.
structureSmilesString	assayedSystem	u	recordedMeasurement
Nc1ncccc1-c1nc2ccc(-n3cccn3)nc2n1-c1ccc2c(c1)CC[C@@H]2NC(=O)c1ccc(C(F)(F)F)nc1	AKT1 WT (Homo sapiens, UniProt P31749)	nM	13.6
Nc1ncccc1-c1nc2ccc(-n3cccn3)nc2n1-c1ccc2c(c1)CC[C@@H]2NC(=O)c1ccc2ccnn2c1	AKT1 WT (Homo sapiens, UniProt P31749)	nM	3.83
Nc1ncccc1-c1nc2ccc(-n3cccn3)nc2n1-c1ccc2c(c1)CC[C@@H]2NCc1ccncc1	AKT1 WT (Homo sapiens, UniProt P31749)	nM	43.8
Nc1ncccc1-c1nc2ccc(-n3cccn3)nc2n1-c1ccc2c(c1)CC[C@@H]2NC1CCN(C(=O)c2ccccc2)CC1	AKT1 WT (Homo sapiens, UniProt P31749)	nM	51
CCC(=O)N1CCC(N[C@H]2CCc3cc(-n4c(-c5cccnc5N)nc5ccc(-n6cccn6)nc54)ccc32)CC1	AKT1 WT (Homo sapiens, UniProt P31749)	nM	93

What value of IC50 has been reported for the following compound? `Nc1ncccc1-c1nc2ccc(-n3cccn3)nc2n1-c1ccc2c(c1)CC[C@@H]2NC(=O)c1cc2ccccn2n1`
13

What value of IC50 has been reported for the following compound? `Nc1ncccc1-c1nc2ccc(-n3cccn3)nc2n1-c1ccc2c(c1)CC[C@@H]2NC(=O)c1cncnc1C(F)F`
10.2

What value of IC50 has been reported for the following compound? `Cc1ccc(C(=O)N[C@H]2CCc3cc(-n4c(-c5cccnc5N)nc5ccc(-n6cccn6)nc54)ccc32)c(C(F)F)n1`
40.9

What value of IC50 has been reported for the following compound? `Nc1ncccc1-c1nc2ccc(-n3cccn3)nc2n1-c1ccc2c(c1)CC[C@@H]2NC(=O)c1ccn2ccnc2c1`
3.42

What value of IC50 has been reported for the following compound? `Nc1ncccc1-c1nc2ccc(-n3cccn3)nc2n1-c1ccc2c(c1)CC[C@@H]2NC(=O)c1ccn(C2CC2)n1`
21.5

What value of IC50 has been reported for the following compound? `Nc1ncccc1-c1nc2ccc(-n3cccn3)nc2n1-c1ccc2c(c1)CC[C@@H]2NC(=O)c1cnc(C(F)F)c(Cl)c1`
8.58

What value of IC50 has been reported for the following compound? `Cn1ccc2c(C(=O)N[C@H]3CCc4cc(-n5c(-c6cccnc6N)nc6ccc(-n7cccn7)nc65)ccc43)[nH]cc2c1=O`
10.8
